Attribution: the supplement of paper PMC4840960

Test system: E18 rat cortical neuron-glia co-culture
MEASUREMENT_DESCRIPTION: myelination (MBP fiber length per Olig2+ nucleus), % of 1 µM DAPT response (DMSO = 0) (% of DAPT); higher = more myelination, active = 50 or more
MEASUREMENT_PARAMETERS: 1 µM; treatment time: 8 days (DIV5-DIV13)
myelination listing for selected compounds.
Answer with the value's number alone.

Documented myelination of CC1(C)O[C@@H]2C[C@H]3[C@@H]4CCC5=CC(=O)C=C[C@]5(C)[C@@]4(F)[C@@H](O)C[C@]3(C)[C@]2(C(=O)CO)O1 [Triamcinolone Acetonide] : 5.47

Quick note, myelination for C[C@H]1c2cccc(O)c2C(=O)C2=C(O)[C@]3(O)C(=O)C(C(N)=O)=C(O)[C@@H](N(C)C)[C@@H]3[C@@H](O)[C@@H]21 landed at -18.2

----------
Test system: E18 rat cortical neuron-glia co-culture
MEASUREMENT_DESCRIPTION: myelination (MBP fiber length per Olig2+ nucleus), % of 1 µM DAPT response (DMSO = 0) (% of DAPT); higher = more myelination, active = 50 or more
MEASUREMENT_PARAMETERS: 1 µM; treatment time: 8 days (DIV5-DIV13)
Below is a list of entries, each paired with its recorded myelination value.
Just the number, please.

Below, each entry is followed by its recorded myelination result.
INSERT INTO measurements (compound, val) VALUES
  ('CC(=O)O[C@H]1C[C@@H]2CC[C@@H]3[C@H](CC[C@@]4(C)[C@H]3C[C@H]([N+]3(C)CCCCC3)[C@@H]4OC(C)=O)[C@@]2(C)C[C@@H]1N1CCCCC1 [Vecuronium Bromide]', -15.8),
  ('CC(=O)S[C@@H]1CC2=CC(=O)CC[C@]2(C)[C@H]2CC[C@@]3(C)[C@@H](CC[C@@]34CCC(=O)O4)[C@H]12', -5.5),
  ('CC12CC3CC(C)(C1)CC(N)(C3)C2 [Memantine]', 12.9),
  ('Cn1c(=O)c2nc[nH]c2n(C)c1=O', -7.88);

Now look at this entry.
Measured myelination for this entry CC#C[C@]1(O)CC[C@H]2[C@@H]3CCC4=CC(=O)CCC4=C3[C@@H](c3ccc(N(C)C)cc3)C[C@@]21C on E18 rat cortical neuron-glia co-culture: -23
